- System: human APOE RNA
- protocol.summary: Dose-dependent reduction of human APOE RNA in HepG2 cells, electroporation, 20,000 cells per well, normalized to PPIA (Example 4, Table 11)
- Assay type: cell-based
- condition.label: HepG2 cells, 20,000 cells per well, approximately 24 hours, PPIA-normalized, 20,000 nM
Strand notation (5' to 3'): a small letter for the sugar, then the base; units joined by * are phosphorothioate-linked, units joined directly phosphodiester-linked; [ ] holds rarer units or linkages, { } end groups; capitals alone tell only the bases. [ms] = mesyl phosphoramidate linkage; e = 2'-O-(2-methoxyethyl) (MOE); k = constrained ethyl (cEt); [5mC] = 5-methylcytosine; d = 2'-deoxy (DNA)
measured.endpoint: APOE RNA (% UTC) 20,000 nM
Write down the numeric answer in % UTC and omit the unit.

Below, 3 substances whose answers are already recorded.
substance	APOE RNA (% UTC) 20,000 nM
Aes^mCeoTeoTesGesGksTdsGdzAdzAdzTds^mCdsTdsTdsTdsAdzTksTksAesAe (eA*e[5mC]eTeT*eG*kG*dT*dG[ms]dA[ms]dA[ms]dT*d[5mC]*dT*dT*dT*dA[ms]kT*kT*eA*eA) [Compound No. 1757576]	7
^mCksTksTksGdzGdzTdzGdzAdzAdzTds^mCdsTdsTdsTdsAdsTdsTksAksAdzAk (antisense k[5mC]*kT*kT*dG[ms]dG[ms]dT[ms]dG[ms]dA[ms]dA[ms]dT*d[5mC]*dT*dT*dT*dA*dT*kT*kA*dA[ms]kA) [Compound No. 1785602]	2
Aks^mCeoTeoTesGesGksTdsGdzAdzAdzTds^mCdsTdsTdsTdsAdzTksTksAesAe (kA*e[5mC]eTeT*eG*kG*dT*dG[ms]dA[ms]dA[ms]dT*d[5mC]*dT*dT*dT*dA[ms]kT*kT*eA*eA) [Compound No. 1809635]	2

Fill in: APOE RNA (% UTC) 20,000 nM of TezTeoGeoGksTdsGdzAdzAdzTds^mCdsTdsTdsTdsAdzTksTksAesAesAes^mCe (antisense eT[ms]eTeGkG*dT*dG[ms]dA[ms]dA[ms]dT*d[5mC]*dT*dT*dT*dA[ms]kT*kT*eA*eA*eA*e[5mC]) [Compound No. 1809814] is ___ 13

###

- System: human APOE RNA
- protocol.summary: Dose-dependent inhibition of human APOE RNA in differentiated SH-SY5Y cells, free uptake, 5 days (Example 5)
- Assay type: cell-based
- condition.label: 8,000 nM, 5 days (Table 14)
- Procedure: Modified oligonucleotides selected from the examples above were tested at various doses in differentiated SH-SY5Y cells. The modified oligonucleotides were tested in a series of experiments that had the same culture conditions. Differentiated SH-SY5Y cells plated at a density of 10,000 cells per well were treated by free uptake with various concentrations of modified oligonucleotide as specified in the tables below. […]
Strand notation (5' to 3'): a small letter for the sugar, then the base; units joined by * are phosphorothioate-linked, units joined directly phosphodiester-linked; [ ] holds rarer units or linkages, { } end groups; capitals alone tell only the bases. [ms] = mesyl phosphoramidate linkage; e = 2'-O-(2-methoxyethyl) (MOE); k = constrained ethyl (cEt); [5mC] = 5-methylcytosine; d = 2'-deoxy (DNA)
Quick reference for APOE RNA (% UTC) among some substances
Output spec: scalar in % UTC, unitless text.

Observe how each entry below is paired with its result.
substance	recorded.number
^mCksTksTksGdzGdzTdzGdzAdzAdzTds^mCdsTdsTdsTdsAdsTdsTksAksAdzAk (antisense k[5mC]*kT*kT*dG[ms]dG[ms]dT[ms]dG[ms]dA[ms]dA[ms]dT*d[5mC]*dT*dT*dT*dA*dT*kT*kA*dA[ms]kA) [Compound No. 1785602]	10
Aes^mCeoTeoTesGesGksTdsGdzAdzAdzTds^mCdsTdsTdsTdsAdzTksTksAesAe (eA*e[5mC]eTeT*eG*kG*dT*dG[ms]dA[ms]dA[ms]dT*d[5mC]*dT*dT*dT*dA[ms]kT*kT*eA*eA) [Compound No. 1757576]	17
1746784 (k[5mC]*kT*kT*dG[ms]dG[ms]dT[ms]dG[ms]dA[ms]dA[ms]dT*d[5mC]*dT*dT*dT*dA[ms]dT*kT*kA*dA[ms]kA; antisense) [Compound 1746784]	13
1785617: modified oligonucleotide complementary to human APOE RNA (k[5mC]*dT[ms]dT[ms]kG*dG[ms]kT*dG[ms]dA[ms]dA[ms]dT[ms]d[5mC]*dT*dT*dT*dA*dT*kT*kA*dA[ms]kA; antisense) [compound 1785617]	22
1778130: modified oligonucleotide complementary to human APOE RNA (eA*e[5mC]eTeTeG*kG*dT*dG[ms]dA[ms]dA*dT*d[5mC]*dT*dT*dT*dA[ms]kTkT*eA*eA; antisense) [compound 1778130]	24
1785599: modified oligonucleotide complementary to human APOE RNA (k[5mC]*kT*kT*dG[ms]dG[ms]dT[ms]dG[ms]dA[ms]dA[ms]dT[ms]d[5mC]*dT*dT*dT*dA*dT*kT*kA*dA[ms]kA; antisense) [compound 1785599]	12
1785598: modified oligonucleotide complementary to human APOE RNA (k[5mC]*kT*kT*dG[ms]dG[ms]dT[ms]dG[ms]dA[ms]dA[ms]dT*d[5mC]*dT*dT*dT*dA*dT[ms]kT*kA*dA[ms]kA; antisense) [compound 1785598]	9
1778128: modified oligonucleotide complementary to human APOE RNA (eA*e[5mC]eTeTkGkG*dT*dG[ms]dA[ms]dA*dT*d[5mC]*dT*dT*dT*dA[ms]kTeT*eA*eA; antisense) [compound 1778128]	33

Return reported APOE RNA (% UTC); argument: 1778111: modified oligonucleotide complementary to human APOE RNA (eA*e[5mC]eTeTeG*kG*dT*dG[ms]dA[ms]dA*dT*d[5mC]*dT*dT*dT*dA[ms]eTeT*eA*eA; antisense) [compound 1778111] 25

Endpoint output: APOE RNA (% UTC) of 1746809 (k[5mC]*dT[ms]kT*dG[ms]kG*dT[ms]dG[ms]dA[ms]dA[ms]dT*d[5mC]*dT*dT*dT*dA[ms]dT*dT[ms]kA*kA*kA; antisense) [Compound 1746809] . Value? 12

###

- Tested on: human APOE RNA
- protocol.summary: Duration of action study in APOE C57BL/6NTac-Apoeem7250 knock-in mice (Example 16)
- Assay type: in vivo
- condition.label: spinal cord; 300 μg ICV; 14 days post-dose
Strand notation (5' to 3'): a small letter for the sugar, then the base; units joined by * are phosphorothioate-linked, units joined directly phosphodiester-linked; [ ] holds rarer units or linkages, { } end groups; capitals alone tell only the bases. [PN] = cyclic guanidine phosphoramidate internucleoside linkage; [ms] = mesyl phosphoramidate linkage; e = 2'-O-(2-methoxyethyl) (MOE); k = constrained ethyl (cEt); [5mC] = 5-methylcytosine; d = 2'-deoxy (DNA)
Listing: APOE RNA (% control) Spinal Cord of selected substances
Express your answer in % control, writing the number without its unit.

substance	measured.endpoint	recorded.number
1652901: 6-10-4 MOE gapmer TTGGTGAATCTTTATTAAAC, linkages sooooossssssssssoss (antisense eT*eTeGeGeTeGdA*dA*dT*d[5mC]*dT*dT*dT*dA*dT*dT*eAeA*eA*e[5mC]) [compound 1652901]	APOE RNA (% control) Spinal Cord	33
Aes^mCeoTeoTesGesGksTdsGdzAdzAdzTds^mCdsTdsTdsTdsAdzTksTksAesAe (eA*e[5mC]eTeT*eG*kG*dT*dG[ms]dA[ms]dA[ms]dT*d[5mC]*dT*dT*dT*dA[ms]kT*kT*eA*eA) [Compound No. 1757576]	APOE RNA (% control) Spinal Cord	25
1721310: 6-10-4 MOE gapmer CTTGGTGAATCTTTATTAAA, linkages s[pn][pn][pn]oossssssszzs[pn]ss (e[5mC]*eT[PN]eT[PN]eG[PN]eGeTdG*dA*dA*dT*d[5mC]*dT*dT*dT[ms]dA[ms]dT*eT[PN]eA*eA*eA) [compound 1721310]	APOE RNA (% control) Spinal Cord	38
1721305: 6-10-4 MOE gapmer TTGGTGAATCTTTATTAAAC, linkages s[pn][pn][pn]oossssssssss[pn]ss (eT*eT[PN]eG[PN]eG[PN]eTeGdA*dA*dT*d[5mC]*dT*dT*dT*dA*dT*dT*eA[PN]eA*eA*e[5mC]) [compound 1721305]	APOE RNA (% control) Spinal Cord	37

So what's the measured APOE RNA (% control) Spinal Cord for this one? 1721308: 6-10-4 MOE gapmer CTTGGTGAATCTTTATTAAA, linkages s[pn][pn][pn]oossssssszzsoss (e[5mC]*eT[PN]eT[PN]eG[PN]eGeTdG*dA*dA*dT*d[5mC]*dT*dT*dT[ms]dA[ms]dT*eTeA*eA*eA) [compound 1721308] 45

Name the recorded APOE RNA (% control) Spinal Cord for 1721304: 6-10-4 MOE gapmer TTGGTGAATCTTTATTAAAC, linkages s[pn][pn][pn]oosssssszzssoss (eT*eT[PN]eG[PN]eG[PN]eTeGdA*dA*dT*d[5mC]*dT*dT*dT[ms]dA[ms]dT*dT*eAeA*eA*e[5mC]) [compound 1721304] . 45
